Every entry's value here was drawn from ChEMBL document CHEMBL1201862.

- Tested on: SK-MEL-28
- assayOverview: NCI tumour cell line growth inhibition, 48 h
The source made the active and inactive calls. Cut-off read from the data, not from the text of the source: active = GI50 up to about 1.1 µM and inactive = higher.
Classes used: Yes (active), No (inactive)

{"columns": ["compound", "assignedCategory"],
 "data": [
  ["COC(=O)CN(CC(=O)NCCCBr)C1CCCCC1N(CC(=O)OC)CC(=O)OC (stereo not given)", "No"],
  ["O=C(O)C(CCc1ccccn1)c1ccccc1 (stereo not given)", "No"],
  ["Cc1ccc(S(=O)(=O)O)cc1.c1cc2c(c(NC3=NCCN3)c1)CCCC2", "No"],
  ["O=[N+]([O-])c1ncc(N(CCO)CCO)s1", "No"],
  ["CC1CCC2[C@@H](C)COC3O[C@]4(C)CCC1C32OO4 (stereo not given in full)", "No"],
  ["CC(ON(C(c1ccccc1)C(C)C)C(C)(C)C)c1ccccc1 (stereo not given)", "No"],
  ["O=C(CCN1CC2CCC(CC2)C1)c1cccs1", "No"],
  ["COc1cccc2c1C(=O)c1c(O)c3c(c(O)c1C2=O)C[C@@](O)(C(=O)CO)CC3OC1CC(NCCCCC(OC(C)=O)OC(C)=O)C(O)C(C)O1 (stereo not given in full)", "Yes"],
  ["CCN(CCCl)c1cccc(NC(=O)c2ccc(C(=O)Nc3cccc(CN(C)C)c3)cc2)c1", "Yes"],
  ["Cc1cc(S(=O)(=O)Nc2nc3ccsc3c(=O)n2N)c(S)cc1Cl", "No"]
]}

* * *

- System: SW-620
- assayOverview: NCI tumour cell line growth inhibition, 48 h
Active and inactive are the calls of the source. No stated cut-off is given here; in the data, active = GI50 up to about 1.1 µM and inactive = higher. Bridge positions count the residues as written; N and C are the ends. Peptide text beside a SMILES is read from it. * marks the point of attachment. Cbz = O=C(OCc1ccccc1)*
Labels: active, inactive

{"columns": ["compound", "assignedCategory"],
 "data": [
  ["COc1cc(Cn2c3c(c4cc(O)ccc42)C(=O)c2ccccc2C3=O)cc(OC)c1", "inactive"],
  ["Cc1c(-c2ccccc2)[nH]c2ccc(Cl)cc2c1=O", "inactive"],
  ["O=[N+]([O-])c1cccc(C2=NOC3CCCC23)c1 (stereo not given)", "inactive"],
  ["OC1CCCC1C(O)(C(F)(F)F)C(F)(F)F (stereo not given)", "inactive"],
  ["CNC(=O)C1CCCCNC(=O)CCC(NC(=O)OCc2ccccc2)C(=O)N1 (stereo not drawn) (Cbz-Glu-Lys-NHMe; lactam 1-2; configuration not given here)", "inactive"],
  ["O=C(O)CCSC1=NCCN1", "inactive"],
  ["CC(C)OP(=O)(OC(C)C)C(Nc1cccc(C(F)(F)F)c1)c1ccccc1 (stereo not given)", "inactive"],
  ["CCCCCCCC(=O)OCC1OC(n2cc(F)c(=O)[nH]c2=O)C(N)C(OC(=O)CCCCCCC)C1O (stereo not given)", "inactive"],
  ["CC/C=C/c1cc2c(c3[nH]ccc13)[C@@H](C)CC2C.CC/C=C/c1cc2cc[nH]c2c2c1C(C)C[C@@H]2C.CCc1cc2c(c3[nH]ccc13)[C@@H](C)CC2C (stereo not given in full)", "inactive"],
  ["CC(=O)OC1O[C@@H](C(C)(C)O)CC[C@@H]1[C@H]1CC[C@@]2(C)C3=C(CC[C@]12C)[C@@]1(C)C[C@@H](OC(=O)CC(C)(O)CC(=O)O)[C@H](OC(C)=O)C(C)(C)C1CC3 (stereo not given in full)", "inactive"],
  ["CC12CCC(Br)C(C)(C)C1CC=C1C(=O)OCC1O2 (stereo not given)", "inactive"],
  ["Cc1cc(O)nc(NN2C(Cl)C(=O)C2c2cccc(O)c2)n1 (stereo not given)", "inactive"],
  ["CC1=C2C(O)C(C(C)CO)C(O)CC2(C)C(O)CC1 (stereo not given)", "inactive"],
  ["CC1=NOC(C)(O)/C1=N/O (stereo not given)", "inactive"],
  ["CCCCCCCCCc1cccc(N2C(N)=NC(N)=NC2(C)C)c1", "active"],
  ["Cc1c(-c2ccccc2)c(C#N)c2nnn(C)c(=O)n12", "inactive"],
  ["O=[N+]([O-])C(Cl)=C/C(=C(\\Cl)SCc1ccccc1)[N+](=O)[O-]", "inactive"],
  ["O=P1(Oc2ccc(Cl)cc2Cl)Oc2ccc3ccccc3c2-c2c(ccc3ccccc23)O1", "inactive"],
  ["CN(C)CCN1CCc2c([nH]c3ccccc23)C1c1cccnc1 (stereo not given)", "inactive"],
  ["O=C1CSSCC(=O)Nc2ccccc2N1", "inactive"],
  ["CN(C)CCNC(=O)c1cccc2c1Oc1cccc([N+](=O)[O-])c1O2", "inactive"],
  ["O=[N+]([O-])c1ncc(N(CCO)CCO)s1", "inactive"],
  ["CC1=C(C(=O)N[C@@H](Cc2ccccc2)C(=O)O)N2C(=O)[C@@H](NC(=O)[C@@H](N)CC(C)C)[C@H]2SC1", "inactive"],
  ["O=c1[nH]/c(=C/c2ccc3c(c2)OCO3)c(=O)[nH]/c1=C/c1ccc2c(c1)OCO2", "inactive"],
  ["Oc1c(Cl)c(Cl)c(O)c2c1CCCC2", "inactive"],
  ["CCN(CC)C(=S)SS(C)(=O)=O", "inactive"],
  ["N#Cc1cc2c(cc1Cl)Sc1nnc(Nc3ccccc3)n1S2(=O)=O", "inactive"],
  ["COc1ccc(C(=O)c2c(C(C(=O)c3ccc(OC)cc3)C(=O)c3ccc(OC)cc3)n(C(=O)c3ccc(OC)cc3)c3ccccc23)cc1", "inactive"],
  ["COC(=O)/C=C\\[C@H]1[C@H](C)N1S(=O)(=O)c1ccc(C)cc1 (stereo not given in full)", "inactive"],
  ["CC1(C)CCC2=C(O1)c1ccccc1/C(=N/c1ccc([N+](=O)[O-])cc1)C2=O", "inactive"],
  ["Clc1cccc(-c2sc(-c3ccsc3)cc2Cc2ccsc2)c1", "inactive"],
  ["C/C(=C1/N=C(c2cc([N+](=O)[O-])ccc2Cl)N(C2=CC=C(Cl)CC2)C1=O)c1cc2ccccc2oc1=O", "inactive"],
  ["CN1c2ccccc2C2c3c(O)ccc(O)c3C=C([N+](=O)[O-])C21 (stereo not given)", "active"],
  ["CCOC(=O)C12CC1(C(=O)OCC)C1CCC2C1 (stereo not given)", "inactive"],
  ["CCOC(=O)C(Br)(C(N)=O)C1(O)OC(c2ccccc2)=C(Br)C1=O (stereo not given)", "inactive"],
  ["CN(C)CCCN1c2ccccc2CCc2cccc([N+](=O)[O-])c21", "inactive"],
  ["O=C1[C@H](Cl)[C@H]2c3cc4ccccc4nc3Oc3ccccc3N12", "inactive"],
  ["C/C=C/CP(=O)(c1ccccc1)c1ccccc1", "inactive"],
  ["COC1=CC(=O)C2=C(C1=O)[C@H]1CC[C@]3(C)[C@@H](O)CC[C@H]3[C@@H]1CC2", "inactive"],
  ["N=C(c1ccc(-c2cn3cc(C(=N)N4CCCC4)ccc3n2)cc1)N1CCCC1", "inactive"]
]}
